- target-desc: BTK (Homo sapiens)
- Sequence (Q06187 whole entry): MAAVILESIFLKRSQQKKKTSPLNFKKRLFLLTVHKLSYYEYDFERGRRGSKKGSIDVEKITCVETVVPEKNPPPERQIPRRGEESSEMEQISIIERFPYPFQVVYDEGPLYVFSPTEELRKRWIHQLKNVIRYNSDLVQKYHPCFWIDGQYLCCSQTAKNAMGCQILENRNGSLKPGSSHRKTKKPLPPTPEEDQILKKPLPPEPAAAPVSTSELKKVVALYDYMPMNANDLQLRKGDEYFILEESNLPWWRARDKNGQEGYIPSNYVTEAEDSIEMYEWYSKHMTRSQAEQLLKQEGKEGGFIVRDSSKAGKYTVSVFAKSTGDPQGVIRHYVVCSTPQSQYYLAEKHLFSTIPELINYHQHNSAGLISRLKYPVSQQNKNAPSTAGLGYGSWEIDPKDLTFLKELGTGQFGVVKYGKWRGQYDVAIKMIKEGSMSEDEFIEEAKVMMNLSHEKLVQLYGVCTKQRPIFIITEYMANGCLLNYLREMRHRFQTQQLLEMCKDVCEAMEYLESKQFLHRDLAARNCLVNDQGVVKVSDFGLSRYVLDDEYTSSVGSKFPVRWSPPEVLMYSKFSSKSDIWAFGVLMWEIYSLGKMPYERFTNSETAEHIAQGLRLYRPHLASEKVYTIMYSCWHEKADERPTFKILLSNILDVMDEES
- assay-remarks: BTK cell degradation in TMD-8 cells, HTRF assay
- Type: cell-based
- Set-up: endogenous in cells; host or cells: TMD-8 cells
- assay-setup: 6 h treatment, IC50 (DC50) of BTK degradation
measurement-name: DC50 (nM)

NC(=O)c1c(-c2ccc(Oc3ccccc3)cc2)nn2c1Nc1ccc(NCC3CCN(c4ccc5c(c4)C(=O)N(C4CCC(=O)NC4=O)C5=O)CC3)cc1CC2 (centres unmarked)	20.6

(P) COc1cc(Oc2ccccc2)ccc1-c1nn2c(c1C(N)=O)Nc1ccc(N3CCN(CC4CCN(c5ccc(N6CCC(=O)NC6=O)cc5)CC4)CC3)cc1CC2
(Q) COc1cc(C(=O)Nc2cc(C(F)(F)F)ccn2)ccc1-c1nn2c(c1C(N)=O)Nc1ccc(N3CCN(CC4CCN(c5ccc(N6CCC(=O)NC6=O)cc5)CC4)CC3)cc1CC2
Exercise: Kindly identify which of P and Q has the larger recorded DC50 value. Refer to your chosen item by its label in the answer.
Key: P

(1) Cc1cccc(NC(=O)c2ccc(-c3nn4c(c3C(N)=O)Nc3ccc(N5CCN(CC6CCN(c7cccc(CN8CCC(=O)NC8=O)c7)CC6)CC5)cc3CC4)c(F)c2C)n1
(2) COc1ccc(C2CC2)cc1C(=O)NCc1ccc(-c2nn3c(c2C(N)=O)Nc2ccc(N4CCN(CC5CCN(c6ccc(N7CCC(=O)NC7=O)cc6)CC5)CC4)cc2CC3)cc1
Exercise: Record comparison, field DC50: mark the lower of 1 and 2 . Refer to your chosen item by its label in the answer.
Key: 2

(I) Cc1c(C(=O)Nc2cscn2)ccc(-c2nn3c(c2C(N)=O)Nc2ccc(N4CCN(CC5CN(c6ccc(N7CCC(=O)NC7=O)cc6)C5)CC4)cc2CC3)c1F
(II) COc1ncccc1C(=O)NCc1ccc(-c2nn3c(c2C(N)=O)Nc2ccc(N4CCN(CC5CCN(c6ccc(N7CCC(=O)NC7=O)cc6)CC5)CC4)cc2CC3)cc1C
Exercise: Kindly identify which of I and II has the larger recorded DC50 value. Refer to your chosen item by its label in the answer.
Key: II
(II: 3.91 nM, I: 2.11 nM)

(1) NC(=O)c1c(-c2ccc(Oc3ccccc3)cc2)nn2c1Nc1ccc(C(=O)N[C@H]3CC[C@H](CN4CCN(c5cc6c(cc5F)C(=O)N(C5CCC(=O)NC5=O)C6=O)CC4)CC3)cc1CC2 (some centres unmarked)
(2) Cc1c(C(=O)Nc2cn(C)cn2)ccc(-c2nn3c(c2C(N)=O)Nc2ccc(N4CCN(C[C@H]5CCN(c6ccc(N7CCC(=O)NC7=O)cc6)C5)CC4)cc2CC3)c1F
Exercise: Record comparison, field DC50: mark the lower of 1 and 2 . Refer to your chosen item by its label in the answer.
Key: 2
